FYI, the data here is from patent EP4023291A1.

target: TRPA1 (Homo sapiens); construct: expressed in transfected cells; host or cells: HEK293T cells, transient transfection with Lipofectamine 2000; assay: Test 9: TRPA1 activity test, cells with forced expression of TRPA1; type: cell-based; details: maximum values, average ± standard deviation; concentration after adding per Table 7 (10.2-28.2 ppm)
Each entry below carries its recorded Δ RFU in cells with forced expression of TRPA1.
// no unit string in output, number only

Some solved entries appear below for comparison.
molecule	reported-value
CCCCCOC(C)=O [Example 14, Pentyl acetate]	0.8
CCCCC(=O)OCC [Example 19, Ethyl valerate]	0.6
CCCOC(C)=O [Comparative Example 11, Propyl acetate, reference compound]	0.2
CCCCCCCC(=O)OCC [Example 28, Ethyl caprylate]	2.3

Prompt line: I would be grateful if you could share the reported Δ RFU in cells with forced expression of TRPA1 for CCCCCCCCCCCC(=O)OCC [Comparative Example 14, Ethyl laurate, reference compound] .
Response line: 0.2

Prompt line: What would you report for CCCCCCCOC(C)=O [Example 16, Heptyl acetate] ?
Response line: 3.5

Prompt line: What would you report for CCCCCCCC(=O)OCCC(C)C [Comparative Example 13, Isoamyl caprylate, reference compound] ?
Response line: 0.2

Prompt line: What would you report for CCCCCC(=O)OCCC [Example 23, Propyl caproate] ?
Response line: 2.7

Prompt line: What would you report for CCCCCC(=O)OCC [Example 22, Ethyl caproate] ?
Response line: 2.2

Prompt line: What would you report for CCCCCC(=O)OCCCC [Example 24, Butyl caproate] ?
Response line: 4.1

Prompt line: What would you report for CC(=O)OCCC(C)C [Example 13, Isoamyl acetate] ?
Response line: 0.7

----------
target: TRPA1 (Homo sapiens, UniProt O75762); construct: expressed in transfected cells; host or cells: HEK293T cells, transient transfection with Lipofectamine 2000; assay: Test 9: TRPA1 activity test, cells with forced expression of TRPA1; assay type: cell-based; conditions: maximum values, average ± standard deviation; concentration after adding per Table 7 (10.2-28.2 ppm)
Sequence (O75762 whole entry): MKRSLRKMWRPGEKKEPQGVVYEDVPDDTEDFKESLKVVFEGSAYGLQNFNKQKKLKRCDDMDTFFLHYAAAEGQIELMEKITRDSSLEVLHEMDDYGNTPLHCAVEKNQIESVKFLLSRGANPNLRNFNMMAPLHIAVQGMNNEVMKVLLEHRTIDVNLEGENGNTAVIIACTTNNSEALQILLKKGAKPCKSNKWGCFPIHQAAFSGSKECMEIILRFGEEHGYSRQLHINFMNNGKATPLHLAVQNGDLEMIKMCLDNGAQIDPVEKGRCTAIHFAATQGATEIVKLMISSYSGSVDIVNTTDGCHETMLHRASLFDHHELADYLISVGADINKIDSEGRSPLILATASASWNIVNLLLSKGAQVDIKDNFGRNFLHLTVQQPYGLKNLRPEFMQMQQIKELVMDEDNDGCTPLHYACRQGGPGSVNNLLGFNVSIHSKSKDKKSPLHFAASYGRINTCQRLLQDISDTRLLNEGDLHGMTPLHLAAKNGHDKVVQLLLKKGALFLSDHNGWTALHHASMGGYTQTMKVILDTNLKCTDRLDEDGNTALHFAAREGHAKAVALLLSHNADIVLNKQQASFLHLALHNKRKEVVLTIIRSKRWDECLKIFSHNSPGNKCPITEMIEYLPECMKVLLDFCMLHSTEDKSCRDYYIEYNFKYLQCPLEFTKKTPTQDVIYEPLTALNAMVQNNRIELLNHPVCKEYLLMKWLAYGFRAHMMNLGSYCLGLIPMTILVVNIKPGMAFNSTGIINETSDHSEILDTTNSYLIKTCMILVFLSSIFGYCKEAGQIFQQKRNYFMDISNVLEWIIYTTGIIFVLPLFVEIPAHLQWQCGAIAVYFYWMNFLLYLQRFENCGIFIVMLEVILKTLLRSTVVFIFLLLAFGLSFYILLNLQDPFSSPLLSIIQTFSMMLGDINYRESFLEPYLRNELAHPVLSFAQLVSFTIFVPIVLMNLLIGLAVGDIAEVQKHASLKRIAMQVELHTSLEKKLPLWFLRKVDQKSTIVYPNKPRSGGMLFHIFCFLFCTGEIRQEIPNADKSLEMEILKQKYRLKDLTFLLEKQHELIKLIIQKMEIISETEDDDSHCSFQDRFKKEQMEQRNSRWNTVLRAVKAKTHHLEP
Rule: Criterion met for Δ RFU in cells with forced expression of TRPA1 not less than 2, Criterion not met for anything less.

Solved cases below.
molecule	group
CCCCCCCC(=O)OC [Example 27, Methyl caprylate]	Criterion not met
CCOC(C)=O [Comparative Example 10, Ethyl acetate, reference compound]	Criterion not met
CCCCCC(=O)OCCC(C)C [Example 25, Isoamyl caproate]	Criterion met

Prompt line: Assess whether reported Δ RFU in cells with forced expression of TRPA1 for CCC(=O)OCCC(C)C [Example 17, Isoamyl propionate] sits at 2 or higher.
Response line: Criterion not met

Prompt line: What would you report for CCCCCC(=O)OC [Example 21, Methyl caproate] ?
Response line: Criterion not met

Prompt line: What would you report for CCCCCOC(=O)CCCCC [Example 26, Pentyl caproate] ?
Response line: Criterion met

Prompt line: What would you report for CCOC(=O)CC [Comparative Example 12, Ethyl propionate, reference compound] ?
Response line: Criterion not met

Prompt line: What would you report for CCC(C)COC(C)=O (stereo not shown) [Example 15, 2-Methylbutyl acetate] ?
Response line: Criterion not met

----------
target: TRPA1 (Homo sapiens, UniProt O75762); construct: expressed in transfected cells; host or cells: HEK293T cells, transient transfection with Lipofectamine 2000; experiment: Test 9: TRPA1 activity test, cells with forced expression of TRPA1; format: cell-based; settings: ratio of maximum ΔRFU values; concentration after adding per Table 7
Each entry below carries its recorded Δ RFU in cells with forced expression of TRPA1 / Δ RFU in non-transformed cells.
// no unit string in output, number only

compound	test-target	reported-value
CCCCCC(=O)OCCC(C)C [Example 25, Isoamyl caproate]	TRPA1 (Homo sapiens, UniProt O75762)	16.2
CCC(C)COC(C)=O (stereo not drawn) [Example 15, 2-Methylbutyl acetate]	TRPA1 (Homo sapiens, UniProt O75762)	2.9

Prompt line: I'm curious: which Δ RFU in cells with forced expression of TRPA1 / Δ RFU in non-transformed cells was measured for CCCC(=O)OCCC(C)C [Example 18, Isoamyl butyrate] tested on TRPA1 (Homo sapiens, UniProt O75762)?
Response line: 19.3

Prompt line: What would you report for CCCCCCCC(=O)OC [Example 27, Methyl caprylate] ?
Response line: 8.3

Prompt line: What would you report for CCCCCOC(C)=O [Example 14, Pentyl acetate] ?
Response line: 12.1

Prompt line: What would you report for CCCOC(C)=O [Comparative Example 11, Propyl acetate, reference compound] ?
Response line: 0.8

Prompt line: What would you report for CCCCCCCCCCCC(=O)OCC [Comparative Example 14, Ethyl laurate, reference compound] ?
Response line: 0.8

Prompt line: What would you report for CCCCCC(=O)OCCCC [Example 24, Butyl caproate] ?
Response line: 29.1

Prompt line: What would you report for CCOC(C)=O [Comparative Example 10, Ethyl acetate, reference compound] ?
Response line: 0.7

Prompt line: What would you report for CCOC(=O)CC [Comparative Example 12, Ethyl propionate, reference compound] ?
Response line: 0.9

Prompt line: What would you report for CCCCCC(=O)OCC [Example 22, Ethyl caproate] ?
Response line: 12.7

Prompt line: What would you report for CCOC(=O)CCC(C)C [Example 20, Ethyl 4-methylvalerate] ?
Response line: 27.6
